The origin of these recorded values is paper PMC12156041.

- Assay Explanation: Chromatographic Hydrophobicity Index (CHI) by HPLC
- Format: physicochemical
- Conditions: pH 7.4; read-out: log D7.4
Think of 4 as a floor: if chromatographic logD stands on it or above, it is YES; beneath it, NO.

sample_smiles=CC1=C(Cc2ccc(C#N)cc2)C(=O)c2ccccc2C1=O answer_label=NO
sample_smiles=CC1=C(Cc2ccc(C(F)(F)F)cc2)C(=O)c2cc(F)ccc2C1=O answer_label=YES
sample_smiles=CC1=C(Cc2c(F)c(F)c(F)c(F)c2F)C(=O)c2ccccc2C1=O answer_label=YES
sample_smiles=COc1cc(CC2=C(C)C(=O)c3ccccc3C2=O)cc(OC)c1 answer_label=YES
sample_smiles=COc1ccc(OC)c(CC2=C(C)C(=O)c3ccccc3C2=O)c1 answer_label=YES
sample_smiles=COc1ccc(CC2=C(C)C(=O)c3ccccc3C2=O)cc1 answer_label=YES
